molecular target: Monoamine transporters; Norepininephrine & dopamine (Rattus norvegicus) (UniProt P23977+Q9WTR4); test: Selectivity ratio against dopamine and norepinephrine transporter binding; assay type: protein assay
MEASUREMENT KIND: Ratio
Write the value as a bare number.

Recorded results for 7 molecules are shown here.
STRUCTURE SMILES | Ratio
C#Cc1ccc(CN2CCC(CCOC(c3ccccc3)c3ccccc3)CC2)cc1 | 180
C=C(C)c1ccc(CN2CCC(CCOC(c3ccccc3)c3ccccc3)CC2)cc1 | 72
Oc1cccc(CN2CCC(CCOC(c3ccccc3)c3ccccc3)CC2)c1 | 47
Ic1ccc(CN2CCC(CCOC(c3ccccc3)c3ccccc3)CC2)cc1 | 1200
COc1cccc(CN2CCC(CCOC(c3ccccc3)c3ccccc3)CC2)c1 | 24
C=Cc1ccc(CN2CCC(CCOC(c3ccccc3)c3ccccc3)CC2)cc1 | 240
CC#Cc1ccc(CN2CCC(CCOC(c3ccccc3)c3ccccc3)CC2)cc1 | 18

Using the record for `Oc1ccc(CN2CCC(CCOC(c3ccccc3)c3ccccc3)CC2)cc1` , report its Ratio.
14
